Measurement Target: T1, mouse TMEM106B (mouse, UniProt Q80X71 2-275)
T1 construct: transiently expressed on HEK293 cells, or native on mouse Neuro2a cells; also called moTMEM106B; murine TMEM106B
Assay Comment: FACS Neuro2a;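 further: flow cytometry of antibody binding to cells: hybridoma supernatant or purified antibody at 10 µg/ml, 1 h on ice, secondary detection, propidium iodide–positive dead cells gated out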
Reported Endpoint: MFI (MFI)
Answer with a number only, understood to be in MFI.

>  <Binder>
TM-19 (antibody, V domains shown) VH: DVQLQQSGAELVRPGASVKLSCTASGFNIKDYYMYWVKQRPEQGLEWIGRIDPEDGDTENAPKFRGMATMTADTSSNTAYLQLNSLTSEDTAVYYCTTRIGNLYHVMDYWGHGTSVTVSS VL: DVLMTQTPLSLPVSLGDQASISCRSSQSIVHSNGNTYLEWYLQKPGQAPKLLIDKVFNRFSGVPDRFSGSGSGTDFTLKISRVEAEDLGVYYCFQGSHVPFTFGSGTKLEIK

>  <MFI (MFI)>
2140

$$$$

Turning to the following binder.
What does the record list as MFI for TM-9 (antibody, V domains shown) VH: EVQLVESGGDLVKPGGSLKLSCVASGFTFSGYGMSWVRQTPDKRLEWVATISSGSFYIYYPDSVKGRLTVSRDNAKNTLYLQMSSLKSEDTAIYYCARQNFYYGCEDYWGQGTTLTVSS VL: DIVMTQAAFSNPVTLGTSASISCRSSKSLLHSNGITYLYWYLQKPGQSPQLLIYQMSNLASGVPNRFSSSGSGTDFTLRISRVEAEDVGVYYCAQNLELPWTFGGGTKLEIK ?
2710
